Read-out: Fatty acid synthase (Homo sapiens)
Assay: LTEA_HepaRG_FASN: Life Technologies and Expression Analysis (LTEA) Assay for Fatty Acid Synthase (FASN) using HepaRG (AID 2283448)
Conditions: mRNA level, 48 h; actives raise or lower the signal
The source made the active and inactive calls. Rule for the calls: active = hit-call score of the fitted dose curve at least 0.9, where 1 is the maximum; inactive = score below 0.9.
Outcomes: class 1 for active, class 0 for inactive

CCCCCCCCCCCC(=O)OC ... class 0
Cc1ccc(N(C)C)cc1 ... class 0
CCCCCCOCCO ... class 0
C=CCc1ccc(O)c(OC)c1 ... class 0
COc1cc(S(=O)(=O)O)c(C)cc1N=Nc1c(O)ccc2cc(S(=O)(=O)O)ccc12 ... class 0
Cc1ccc(Cl)cc1 ... class 0
CN1CCCC1=O ... class 0
CCNc1cccc(C)c1 ... class 0
Cc1c(C(=O)O)c(O)cc2c1C(=O)c1c(O)c([C@@H]3O[C@H](CO)[C@@H](O)[C@H](O)[C@H]3O)c(O)c(O)c1C2=O ... class 0
CNCc1cc(F)ccc1Oc1ccc(Cl)c(Cl)c1 ... class 1
CCCCCCCC=O ... class 0
O=C(O)CCCCC(=O)O ... class 0
CCCCCCCCCCO ... class 0
CC(=O)Oc1ccccc1C(=O)O ... class 0
CCCCc1ccc2c(n1)[C@@H](c1ccc(OC)cc1C[C@H](C)C(=O)O)[C@H](C(=O)O)[C@H]2c1ccc2c(c1)OCO2 ... class 0
Cc1nc(-c2ccc3c(c2)CCN(CCC2CCC(NC(=O)/C=C/c4ccc(F)cc4)CC2)CC3)no1 (stereo not given) ... class 0
NS(=O)(=O)c1cc2c(cc1Cl)NCNS2(=O)=O ... class 0
NCCO ... class 0
CCCCCCCCCCC ... class 0
CCCCCCC(=O)OCC ... class 0
CNC(=O)[C@H]1O[C@@H](n2cnc3c(NCc4cc(Cl)ccc4OCc4cc(C)no4)ncnc32)[C@H](O)[C@@H]1N ... class 0
CCOc1ccc2c(c1)C(C)=CC(C)(C)N2 ... class 0
CCOC(=O)C(C)(C)Oc1ccc(Cl)cc1 ... class 0
Nc1nc(N)c2nc(CNc3ccc(C(=O)N[C@@H](CCC(=O)O)C(=O)O)cc3)cnc2n1 ... class 1
CC(=O)OCCOCCOCCOC(C)=O ... class 0
Nc1ccc2c(c1)C(=O)c1ccccc1C2=O ... class 1
NCC1(Cc2noc(=O)[nH]2)CCCCC1 ... class 0
Cc1ccc(C(C)C)c(O)c1 ... class 0
COCCOCCOC ... class 0
C=CCOC(=O)c1ccccc1C(=O)OCC=C ... class 0
O=C(O)Cc1ccccc1Nc1c(Cl)cccc1Cl ... class 0
CCCc1cc(=O)[nH]c(=S)[nH]1 ... class 0
Cc1cccc(C)c1O ... class 0
Nc1ccccc1N ... class 1
COc1ccc2c(c1)c(CC(=O)O)c(C)n2C(=O)c1ccc(Cl)cc1 ... class 0
O=C(OCCCCCOC(=O)c1ccccc1)c1ccccc1 ... class 0
Cc1ccc(C)c(O)c1C ... class 0
Oc1ccc2ccccc2c1N=Nc1ccccc1 ... class 1
CCCCCC(=O)O ... class 0
Cc1cccc([N+](=O)[O-])c1C ... class 0
CC(C)c1ccc(C(=O)N=C(N)N)cc1S(C)(=O)=O ... class 0
CCOC(=O)CCC(=O)OCC ... class 0
Nc1ccc(S(=O)(=O)c2ccc(N)cc2)cc1 ... class 0
Cc1cc(=O)[nH]c(=S)[nH]1 ... class 0
Oc1ccc2c(c1)OC[C@@H](N1CCC(O)(c3ccc(F)cc3)CC1)[C@H]2O ... class 0
FC(F)(F)C(F)(F)C(F)(F)C(F)(F)C(F)(F)C(F)(F)CCI ... class 0
CC(=O)C(C)=CC1C(C)=CCCC1(C)C (stereo not given) ... class 0
CCCCN(CCCC)CCCC ... class 0
C1CCC(SSC2CCCCC2)CC1 ... class 0
COCCOC[C@H](CC1(C(=O)NC2CCC(C(=O)O)CC2)CCCC1)C(=O)Oc1ccc2c(c1)CCC2 (stereo not given in full) ... class 0
COc1ccc(C)cc1N ... class 0
COc1cc(-c2nc(NC(=O)c3cc4cc(C)cc(C)c4n3CC(=O)O)sc2CCC2CCCCC2)c(OC)cc1Cl ... class 0
CC1(C)CC(N=C=O)CC(C)(CN=C=O)C1 (stereo not given) ... class 1
O=C(N[C@@H](Cc1ccccc1)[C@@H](O)C(=O)N1C[C@@H](O)[C@@H](O)C1)c1cc2cc(Cl)ccc2[nH]1 ... class 0
CCCCCCCCCCCCCCCC ... class 0

* * *

Read-out: CYP2C9 (gene 1559)
Assay: LTEA_HepaRG_CYP2C9: Life Technologies and Expression Analysis (LTEA) Assay for CYP2C9 using HepaRG (AID 2283484)
Details: mRNA level, 48 h; actives raise or lower the signal
Calls of active or inactive are those of the source. How the source made its calls: active means hit-call score of the fitted dose curve at least 0.9, where 1 is the maximum; inactive means score below 0.9.
Outcome codes: active, inactive

Clc1cc(Cl)c(Cl)cc1Cl ... inactive
CCCCC(CC)COC(=O)CC(C(=O)OCC(CC)CCCC)S(=O)(=O)O (configuration not stated) ... active
CC=Cc1ccc(O)c(OC)c1 ... inactive
COc1ccc(S(=O)(=O)N2C(=O)[C@@](c3ccccc3OC)(N3C[C@H](O)C[C@H]3C(=O)N(C)C)c3cc(Cl)ccc32)c(OC)c1 ... active
NC(=O)Cn1c(=O)cc(CCN2CCN(c3nccc4sccc34)CC2)c2ccc(F)cc21 ... active
CNCc1cc(F)ccc1Oc1ccc(Cl)c(Cl)c1 ... active
CCCCCCCCCCCCCO ... inactive
CN[C@H]1CC[C@@H](c2ccc(Cl)c(Cl)c2)c2ccc(S(N)(=O)=O)cc21 ... active
O=C(O)CCCCC(=O)O ... inactive
Nc1ccccc1N ... active
Cc1cccc(C)c1O ... inactive
Cc1cccc(Nc2cc(Cl)nc(SCC(=O)O)n2)c1C ... inactive

* * *

Experiment: ACEA_ER_80hr: ACEA Biosciences xCELLigence Real-Time Cell Analysis on Estrogen Receptor Agonism for Proliferation (AID 2282667)
Conditions: T47D proliferation, impedance (xCELLigence), 80 h
Protocol: ACEA_ER is a cell-based, single-readout assay that uses T47D, a human breast cell line, with measurements taken at 80 hours after chemical dosing in a 96-well plate, although TO2 (mc0.srcf) used a 384-well plate. Differences in plate size can be ignored given data normalization.ACEA_ER_80hr is one of two assay component(s) measured or calculated from the ACEA_ER assay. […]
Results filed as inconclusive are left out. Active and inactive are the calls of the source. How the source made its calls: active means hit-call score of the fitted dose curve at least 0.9, where 1 is the maximum; inconclusive means response in the unintended direction; inactive means score below 0.9.
Labels: active, inactive

CCCCC(CC)COC(=O)CC(C(=O)OCC(CC)CCCC)S(=O)(=O)O (stereo not given) ... inactive
CCCCCCCCCCO ... active
Cc1nc(-c2ccc3c(c2)CCN(CCC2CCC(NC(=O)/C=C/c4ccc(F)cc4)CC2)CC3)no1 (stereo not given) ... inactive
CCCCCCCC=O ... inactive
O=C(O)CCCCC(=O)O ... inactive

* * *

Assay: ATG_MRE_CIS: Attagene CIS-FACTORIAL HepG2 Assay for human Metal Responsive Element (MRE) (AID 2282954)
Settings: HepG2 MRE cis-reporter transcription, Attagene multiplex; actives raise or lower the signal
Activity calls are given as the source filed them. Rule for the calls: active = hit-call score of the fitted dose curve at least 0.9, where 1 is the maximum; inactive = score below 0.9.
PROPERTY NAME: outcome

Nc1ccc2c(c1)C(=O)c1ccccc1C2=O ... inactive
CCCCCCCCCCC ... inactive
CCOC(=O)CCC(=O)OCC ... inactive
O=C(OCCCCCOC(=O)c1ccccc1)c1ccccc1 ... inactive
COc1ccc(C)cc1N ... inactive
Cc1ccc(C)c(C)c1 ... inactive
CC(=O)C(C)=CC1C(C)=CCCC1(C)C (stereo not given) ... inactive
CC1(C)CC(N=C=O)CC(C)(CN=C=O)C1 (stereo not given) ... inactive
CCCCc1ccc2c(n1)[C@@H](c1ccc(OC)cc1C[C@H](C)C(=O)O)[C@H](C(=O)O)[C@H]2c1ccc2c(c1)OCO2 ... inactive
Nc1ccc(S(=O)(=O)c2ccc(N)cc2)cc1 ... inactive
CCCCCCCCCCCCCCCC ... inactive
C1CCC(SSC2CCCCC2)CC1 ... inactive
CCCCOC(=O)CCCCCCCCC(=O)OCCCC ... inactive
CCCCC(CC)COC(=O)CC(C(=O)OCC(CC)CCCC)S(=O)(=O)O (stereo not given) ... inactive
CC(=O)OCCOCCOCCOC(C)=O ... inactive

* * *

Assay: ATG_Ets_CIS: Attagene CIS-FACTORIAL HepG2 Assay for human Erythroblast Transformation Specific (ETS) (AID 2282941)
Settings: HepG2 ETS cis-reporter transcription, actives raise or lower the signal
Calls of active or inactive are those of the source. Rule for the calls: active = hit-call score of the fitted dose curve at least 0.9, where 1 is the maximum; inactive = score below 0.9.
PROPERTY NAME: outcome

Cc1cccc([N+](=O)[O-])c1C ... inactive
Nc1ccc2c(c1)C(=O)c1ccccc1C2=O ... inactive
CCCCCCCCCCO ... inactive
COc1cc(/C=C/C(=O)CC(=O)/C=C/c2ccc(O)c(OC)c2)ccc1O ... inactive
C[C@]12C=CC(=O)C=C1CC[C@@H]1[C@@H]2C(=O)C[C@@]2(C)[C@H]1CC[C@]2(O)C(=O)CO ... inactive
CCCCC(CC)COC(=O)CC(C(=O)OCC(CC)CCCC)S(=O)(=O)O (centres undefined) ... inactive
NCC1(Cc2noc(=O)[nH]2)CCCCC1 ... inactive
c1cc(-c2ccncc2)ccn1 ... inactive
O=c1[nH]cc(F)c(=O)[nH]1 ... inactive
O=C(OCCCCCOC(=O)c1ccccc1)c1ccccc1 ... inactive
Cc1cc(=O)[nH]c(=S)[nH]1 ... inactive
Nc1ccccc1N ... inactive
COCCOCCOC ... inactive
CCCCCCC(=O)OCC ... inactive
